All figures here come from ChEMBL document CHEMBL1201862.

- Test system: HCC 2998
- TEST_NAME: NCI tumour cell line growth inhibition, 48 h
Activity calls are given as the source filed them. No stated cut-off is given here; in the data, active = GI50 up to about 1.1 µM and inactive = higher.
RESULT_TYPE: GI50

COMPOUND	DATA_VALUE
O=c1cc(N2CCOCC2)[nH]c(=O)n1-c1cccc(Cl)c1	> 100 µM (inactive)
COC(=O)[C@@H](NS(=O)(=O)CC12CCC(CC1)C2(C)C)C(C)(C)C	> 100 µM (inactive)
CC(C)Cc1ccc(C(C)/C=C2\CCC(CN(C)C)C2=O)cc1 (stereo not given)	16.8 µM (inactive)
CN1CCN(c2cc3[nH]c(-c4ccc(Cl)cc4)nc3cc2F)CC1	4.71 µM (inactive)
CC(C)(Oc1ccccc1)C(=O)Sc1c(-c2ccccc2)c(=O)n(-c2ccccc2)c(=S)n1-c1ccccc1	46.8 µM (inactive)
C=C1CC(C)(COc2ccc3c(C)c(C)c(=O)oc3c2C)OC1=O (stereo not given)	1.76 µM (inactive)
C=C(NC(=O)C(=C)NC(=O)c1ccc2c(n1)-c1coc(n1)C(=C)NC(=O)C(=C)NC(=O)c1nc(oc1C)C(=C)NC(=O)C(C(C)(C)O)NC(=O)C(=C)NC(=O)c1coc(n1)/C(=C/C)NC(=O)[C@H]([C@@H](C)O)NC(=O)c1csc-2n1)C(N)=O (stereo not given in full)	> 87.5 µM (inactive)
Cn1c(-c2cccc([N+](=O)[O-])c2)[n+](C)c2ccccc21	> 100 µM (inactive)
C1CN2N3CCCC23C1 (stereo not given)	> 100 µM (inactive)
Cc1ccccc1N1C(=O)C2C=CC(n3[nH]c(=O)n(Cc4ccccc4)c3=O)CC2C1=O (stereo not given)	> 100 µM (inactive)
